target: His-RBD WT (Influenza A virus A/Brevig …, UniProt Q99AU3 1-85); assay: fluorescence polarization; biphasic, second transition; […], pH 8.0, 1 h at room temperature; […]; settings: protein: recombinant; tags: N-term 10xHis; chain copies: 2; label: 5'-FAM (FITC) on both strands; blunt
Sequence (Q99AU3 1-85): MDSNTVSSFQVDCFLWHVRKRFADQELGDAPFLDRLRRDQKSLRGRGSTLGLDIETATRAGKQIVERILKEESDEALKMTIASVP
Parameter measured: pKd
Kindly note that pKd refers to -log10 of the concentration in mol/L and answer with the value alone.

GET /values?readout=pKd&item= FAM-dsRNA 16 bp (dsRNA) RNA 1: CCAUCCUCUACAGGCG RNA 2: CGCCUGUAGAGGAUGG
5.67
